In this section, each of the compounds is paired with its reported normalized growth.
# METHOD_SUMMARY: chemical genetic growth profiling, strain panel (AID 1159580);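 further: tested at 20 µM; growth read once vehicle control cultures reached saturation at 30 °C; 1 = growth at the plate median or of vehicle wells; lower values mean less growth of the strain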
# CONDITION_DESCRIPTION: S. cerevisiae deletion strains, growth OD, locus YPR163C, strain tif3, active compounds read low
The campaign covered roughly 5,500 compounds. About 2,000 (36%) were called active. About 18% were inconclusive and are not listed. Some of the results follow.
Answer using only a numeral; do not append any unit.

COMPOUND: COc1cc2c(cc1OC)[C@@]13CCN4CC5=CCOC6CC(=O)N2C1[C@H]6[C@H]5C[C@H]43 (some centres undefined)
normalized growth: 1.01

COMPOUND: Cc1onc(-c2c(Cl)cccc2Cl)c1C(=O)N[C@@H]1C(=O)N2[C@@H]1SC(C)(C)[C@@H]2C(=O)O
normalized growth: 0.998

COMPOUND: NC(=O)N1c2ccccc2C=Cc2ccccc21
normalized growth: 1

(Q) Need normalized growth, item C1CCC(C(CC2CCCCN2)C2CCCCC2)CC1 (centres undefined)
(A) 0.0807

Recorded values, source PubChem BioAssay AID1159580.
